# Target system: WT STING (Homo sapiens, UniProt Q86WV6, H232R)
# Sequence (Q86WV6 whole entry H232R): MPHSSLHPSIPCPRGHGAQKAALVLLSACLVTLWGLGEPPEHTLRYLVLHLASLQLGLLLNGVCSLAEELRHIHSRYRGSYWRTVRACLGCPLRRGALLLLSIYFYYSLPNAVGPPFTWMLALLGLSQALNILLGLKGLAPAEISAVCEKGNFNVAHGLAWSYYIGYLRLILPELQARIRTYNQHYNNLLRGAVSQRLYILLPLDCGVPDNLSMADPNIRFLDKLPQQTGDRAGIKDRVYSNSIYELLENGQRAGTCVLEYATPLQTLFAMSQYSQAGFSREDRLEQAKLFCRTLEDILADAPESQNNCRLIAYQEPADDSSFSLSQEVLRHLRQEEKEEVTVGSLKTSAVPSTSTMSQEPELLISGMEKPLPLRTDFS
# Assay method text: Digitonin assay using 293T wtSTING-FL reporter cells
# Assay type: cell-based
# Design: host or cells: 293T (ATCC CRL-3216), stably transfected; also carries the 4xISRE firefly luciferase reporter
# Study conditions: 293T wtSTING-FL cells, digitonin buffer 30 min, then 5 h, ISRE firefly luciferase reporter; read-out: Digitonin assay EC50 WT STING
pEC50: −log10 of the molar value.
The following compounds are shown together with reported pEC50 values.
Recorded endpoint: pEC50

Compound | Recorded endpoint | Numeric readout
Nc1nc(N)c2ncn([C@@H]3O[C@@H]4COP(=O)(O)OC5C(O)[C@@H](COP(=O)(O)OC4C3F)C[C@H]5n3cnc4c(=O)[nH]c(N)nc43)c2n1 (some centres unmarked) | pEC50 | 7.30
Nc1nc(N)c2ncn([C@@H]3O[C@@H]4COP(=O)(O)OC5C(O)[C@@H](COP(=O)(O)OC4C3O)C[C@H]5n3cnc4c(=O)[nH]c(N)nc43)c2n1 (some centres unmarked) | pEC50 | 6.30
Nc1ncnc2c1c(I)cn2[C@@H]1O[C@@H]2COP(=O)(O)OC3C(O)[C@@H](COP(=O)(O)OC2C1O)C[C@H]3n1cnc2c(=O)[nH]cnc21 (some centres unmarked) | pEC50 | 6.40
CSc1ncnc2c1ncn2[C@@H]1O[C@@H]2COP(=O)(O)OC3C(O)[C@@H](COP(=O)(O)OC2C1O)C[C@H]3n1cnc2c(=O)[nH]cnc21 (some centres unmarked) | pEC50 | 6.68
Nc1nc2c(ncn2[C@@H]2C[C@@H]3COP(=O)(O)OC4C(F)[C@H](n5cnc6c(N)nc(F)nc65)O[C@@H]4COP(=O)(O)OC2C3O)c(=O)[nH]1 (some centres unmarked) | pEC50 | 7.52
